All figures here come from PubChem BioAssay AID504657.

- Test system: S. cerevisiae tim10-1 mutant, luminescence counterscreen
- test-description: tim10-1 yeast luminescent signal inhibition – luminescence, S. cerevisiae, uHTS hits, counter-screen for tim23-1 inhibitor project, dose response (AID 504657)
Active and inactive are the calls of the source. How the calls were made is not given here.
Classes to choose from: Y = active, N = inactive

O=C(N/N=C/c1coc2ccc(Cl)cc2c1=O)c1cc(O)cc(O)c1 = N

[in] Please state the recorded outcome for this compound: `CN(C)/C=C1/C=C(c2ccccc2)OC1=O`
[out] Y

[in] Please state the recorded outcome for this compound: `O=C(N/N=C/C=C\c1ccco1)c1cccs1`
[out] N

[in] Please state the recorded outcome for this compound: `O=C(/C=C/c1ccccc1Cl)Nc1ccccc1`
[out] N

[in] Please state the recorded outcome for this compound: `CCOC(=O)c1cccnc1SCc1cc(=O)n2ccccc2n1`
[out] N
